- target desc: Short transient receptor potential channel 4 (Mus musculus) (UniProt Q9QUQ5)
- Sequence (Q9QUQ5 whole entry, looked up): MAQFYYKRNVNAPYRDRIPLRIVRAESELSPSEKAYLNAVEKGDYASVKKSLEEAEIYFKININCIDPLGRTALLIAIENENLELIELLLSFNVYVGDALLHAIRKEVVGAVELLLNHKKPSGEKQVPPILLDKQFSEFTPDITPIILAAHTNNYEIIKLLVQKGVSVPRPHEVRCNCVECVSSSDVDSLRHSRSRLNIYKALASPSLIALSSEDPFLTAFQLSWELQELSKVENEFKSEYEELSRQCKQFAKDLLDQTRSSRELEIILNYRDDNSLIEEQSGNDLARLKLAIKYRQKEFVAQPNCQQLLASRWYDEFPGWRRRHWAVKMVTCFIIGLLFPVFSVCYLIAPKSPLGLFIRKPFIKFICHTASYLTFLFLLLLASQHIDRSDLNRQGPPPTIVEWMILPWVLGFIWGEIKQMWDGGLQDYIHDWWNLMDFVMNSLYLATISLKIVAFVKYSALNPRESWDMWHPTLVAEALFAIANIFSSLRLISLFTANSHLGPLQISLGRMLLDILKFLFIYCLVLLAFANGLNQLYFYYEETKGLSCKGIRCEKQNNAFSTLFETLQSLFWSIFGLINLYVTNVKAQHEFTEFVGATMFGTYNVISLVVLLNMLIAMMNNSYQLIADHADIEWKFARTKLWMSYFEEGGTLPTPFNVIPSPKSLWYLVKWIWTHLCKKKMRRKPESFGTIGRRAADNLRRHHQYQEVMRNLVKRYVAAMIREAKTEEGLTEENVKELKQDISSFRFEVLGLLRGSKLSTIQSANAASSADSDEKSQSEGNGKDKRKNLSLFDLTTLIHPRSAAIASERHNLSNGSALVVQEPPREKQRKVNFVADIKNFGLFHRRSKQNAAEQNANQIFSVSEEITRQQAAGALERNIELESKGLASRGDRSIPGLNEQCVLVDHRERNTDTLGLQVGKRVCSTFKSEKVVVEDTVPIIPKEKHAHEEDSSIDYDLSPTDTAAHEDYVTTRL
- assay name: calcium entry via TRPC4 opening agents – cell-based, HEK293 TRPC4/mu-opioid, Fluo-4 calcium, dose response (AID 434937);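 further: HEK293 cells coexpressing mouse TRPC4 with mu-opioid receptor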
- test settings: HEK293 TRPC4 cells, Fluo-4 calcium fluorescence ratio; series mostly up to 20 µM
Results with a measured potency or affinity are listed apart. Calls of active or inactive are those of the source.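 How the source made its calls: active means primary screen activator hit with a dose response curve and TRPC4 channel activation at any tested dose; inactive means no activation, no dose response, or not a primary hit.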
assay readout: outcome

Guide cases for outcome, answers given:
# molecule, outcome
records = [
    ("COC(=O)C1=C(C)NC2=C(C(=O)c3ccccc32)C1c1ccc(-c2ccc(C(=O)O)cc2)o1 (stereo unspecified)", "inactive"),
    ("CCN(CCCNC(=O)CCCOc1cc(=O)n(C)c2ccccc12)Cc1ccccc1", "inactive"),
    ("COc1cccc(NC(=O)COc2c(F)c(F)c(C(F)(F)F)c(F)c2F)c1", "inactive"),
    ("NS(=O)(=O)c1ccc(Oc2ccc(S(N)(=O)=O)cc2)cc1", "inactive"),
]

Go through the items and report each one's outcome.
1. NCC(c1ccc(Cl)cc1Cl)c1c[nH]c2ccccc12 (stereo unspecified)
2. c1ccc(Cc2nc3ccccc3n2Cc2ccccc2)cc1

inactive
inactive

###

- Tested on: transient receptor potential cation channel C4 beta (TRPC4), mouse
- assay name: TRPC4 cation channel opening, second retest – cell-based, second round, Fluo4, HEK293 TRPC4beta/mu-opioid, 1 µM, confirmation (AID 2461)
- test settings: Fluo4 calcium fluorescence, at 1 µM
Activity calls are given as the source filed them.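 How the source made its calls: active means primary screen active and over 50% activation in each of two duplicate runs; inactive means the rest.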
Pick one: y = active, n = inactive

Recorded results for 5 compounds are shown here.
# compound, label
records = [
    ("COC(=O)C(CC(=O)Nc1cc(C)ccc1C)Nc1ccccc1OC (stereo not drawn)", "n"),
    ("CN(C)C(CNC(=O)c1cccc(C(F)(F)F)c1)c1ccco1 (stereo not drawn)", "n"),
    ("COCCn1c(SCc2cccc([N+](=O)[O-])c2)nc2ccccc2c1=O", "n"),
    ("CCOC(=O)C1(Cc2ccccc2C)CCCN(Cc2ccc(NC(C)=O)cc2)C1 (stereo not drawn)", "n"),
    ("CN(C)CCCNc1c2c(nc3cc(-c4cccc(F)c4)nn13)CCC2", "n"),
]

What is the recorded call for this compound in the test? `COc1cc(CNC2CCCC2)c(Br)cc1OC1CCCC1`
n

What is the recorded call for this compound in the test? `CCN1CCN(c2nc(N)c([N+](=O)[O-])c(Nc3ccc(C)cc3)n2)CC1`
n

What is the recorded call for this compound in the test? `COc1cccc(C(=O)Oc2ccc(/C=N/Nc3ccc(C(=O)O)cc3)cc2OC)c1`
n

What is the recorded call for this compound in the test? `NC(=NC1CCCCC1)c1ccc(Cl)cc1`
n

What is the recorded call for this compound in the test? `CCn1c2ccc(F)cc2c2nnc(NN)nc21`
n

What is the recorded call for this compound in the test? CN(C)C(CNC(=O)CCS(=O)(=O)c1ccccc1)c1ccccc1 (stereo not drawn)
y

What is the recorded call for this compound in the test? `Cc1ccccc1-c1n[nH]c(=S)n1Cc1ccccc1`
n

What is the recorded call for this compound in the test? `COc1ccc(C(=O)Nc2ccccc2N2CCN(C(=O)c3ccccc3)CC2)cc1Br`
n

What is the recorded call for this compound in the test? `CCCNc1nc2ccccc2n2c(C)nnc12`
n

What is the recorded call for this compound in the test? `O=[N+]([O-])c1ccccc1CN1CCN(S(=O)(=O)c2ccccc2)CC1`
n

What is the recorded call for this compound in the test? `Cc1cccc(OCCn2c(=O)sc3ccccc32)c1`
n

What is the recorded call for this compound in the test? Cc1ccc(-n2cc(CNC(C)c3cnn(C)c3C)c(-c3ccc(F)cc3)n2)cc1 (stereo not drawn)
y

What is the recorded call for this compound in the test? `Cc1cc(C)c(C)c(OCCCOc2cccc3cccnc23)c1`
n

What is the recorded call for this compound in the test? `Cc1ccc(CNC(=O)CSc2nc(=O)n3ccccc3n2)cc1`
n

What is the recorded call for this compound in the test? `COc1cccc(N2CC(O)=C(c3nc4ccccc4c(=O)[nH]3)C2=N)c1`
n

What is the recorded call for this compound in the test? `Cc1ccn2cc(CCNC(=O)c3ccc(Br)o3)nc2c1`
n

What is the recorded call for this compound in the test? `Cc1csc2c(N3CCN(C(=O)Nc4ccccc4)CC3)ncnc12`
n

What is the recorded call for this compound in the test? `Cc1cc2nc3s/c(=C/c4ccc(-c5ccccc5C(=O)O)o4)c(=O)n3c2cc1C`
n
